Test system: 885724-159-R-J1-PDC KRAS PDC multicell spheroid viability;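 further: spheroids exposed to agents for 7 days before readout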
Experiment: Anticancer human tumor 885724-159-R-J1-PDC patient-derived pancreatic adenocarcinoma cell line growth inhibition [KRAS2]
Conditions: second compound 3.16 µM; first compound 0.316 µM; hits give low values
Binary call on viability, T/C with cut-off 60%: strictly below means 1, and equality or higher means -1.

CC1COCCN1c1cc(-c2ccnn2C)c2ccnc(-c3ccn[nH]3)c2n1 (stereo unspecified) + COc1cc2nc(C)nc(NC(C)c3cc(N)cc(C(F)(F)F)c3)c2cc1OC1CCOC1 = -1

query: Does the reported viability, T/C of COc1cc(Nc2ncc3c(n2)-c2ccc(Cl)cc2C(c2c(F)cccc2OC)=NC3)ccc1C(=O)O + C=CC(=O)N1CCN(c2nc(OCC3CCCN3C)nc3c2CCN(c2cccc4cccc(C)c24)C3)CC1CC#N stay below 60%?
result: 1

query: is_below(viability, T/C, 60%) for CC1(C)CCC(CN2CCN(c3ccc(C(=O)NS(=O)(=O)c4ccc(NCC5CCOCC5)c([N+](=O)[O-])c4)c(Oc4cnc5[nH]ccc5c4)c3)CC2)=C(c2ccc(Cl)cc2)C1 + CC1OCC2(CCN(c3cnc(Sc4ccnc(N)c4Cl)c(N)n3)CC2)C1N ?
result: -1

query: Answer whether the compound COC(=O)c1ccc2c(C(=Nc3ccc(N(C)C(=O)CN4CCN(C)CC4)cc3)c3ccccc3)c(O)[nH]c2c1 + C=CC(=O)N1CCN(c2nc(=O)n(-c3c(C)ccnc3C(C)C)c3nc(-c4c(O)cccc4F)c(F)cc23)C(C)C1 has viability, T/C strictly less than 60%
result: -1

query: Identify whether the compound CC1OCC2(CCN(c3cnc(Sc4ccnc(N)c4Cl)c(N)n3)CC2)C1N (stereo unspecified) + C=CC(=O)N1CCN(c2nc(OCC3CCCN3C)nc3c2CCN(c2cccc4cccc(C)c24)C3)CC1CC#N records viability, T/C below 60%.
result: 1

query: Identify whether the compound CC1(C)CCC(CN2CCN(c3ccc(C(=O)NS(=O)(=O)c4ccc(NCC5CCOCC5)c([N+](=O)[O-])c4)c(Oc4cnc5[nH]ccc5c4)c3)CC2)=C(c2ccc(Cl)cc2)C1 + COc1cc2nc(C)nc(NC(C)c3cc(N)cc(C(F)(F)F)c3)c2cc1OC1CCOC1 records viability, T/C below 60%.
result: -1

query: Here's an entry: CC(=O)OC12COC1CC(O)C1(C)C(=O)C(O)C3=C(C)C(OC(=O)C(O)C(NC(=O)OC(C)(C)C)c4ccccc4)CC(O)(C(OC(=O)c4ccccc4)C21)C3(C)C (stereo unspecified) + COc1cc2nc(C)nc(NC(C)c3cc(N)cc(C(F)(F)F)c3)c2cc1OC1CCOC1 . Is its viability, T/C below 60%?
result: -1

query: Criterion: viability, T/C strictly below 60%. Is it met by CC1(C)CCC(CN2CCN(c3ccc(C(=O)NS(=O)(=O)c4ccc(NCC5CCOCC5)c([N+](=O)[O-])c4)c(Oc4cnc5[nH]ccc5c4)c3)CC2)=C(c2ccc(Cl)cc2)C1 + C=CC(=O)N1CCN(c2nc(OCC3CCCN3C)nc3c2CCN(c2cccc4cccc(C)c24)C3)CC1CC#N ?
result: 1

query: # strict comparison: is reported viability, T/C < 60%? input = COc1cc2nccc(Oc3ccc(NC(=O)C4(C(=O)Nc5ccc(F)cc5)CC4)cc3)c2cc1OC + CC1OCC2(CCN(c3cnc(Sc4ccnc(N)c4Cl)c(N)n3)CC2)C1N
result: -1

query: In plain terms, does CC1COCCN1c1cc(-c2ccnn2C)c2ccnc(-c3ccn[nH]3)c2n1 (stereo unspecified) + C=CC(=O)N1CCN(c2nc(OCC3CCCN3C)nc3c2CCN(c2cccc4cccc(C)c24)C3)CC1CC#N come in under 60% for viability, T/C?
result: 1

query: Please determine if CC1(C)CCC(CN2CCN(c3ccc(C(=O)NS(=O)(=O)c4ccc(NCC5CCOCC5)c([N+](=O)[O-])c4)c(Oc4cnc5[nH]ccc5c4)c3)CC2)=C(c2ccc(Cl)cc2)C1 + CNCc1ccccc1-c1csc(C(C)Nc2nc(C)nc3cc(OC)c(OC)cc23)c1 is below 60% in terms of viability, T/C.
result: 1

query: Please determine if COC(=O)c1ccc2c(C(=Nc3ccc(N(C)C(=O)CN4CCN(C)CC4)cc3)c3ccccc3)c(O)[nH]c2c1 + COc1cc2nc(C)nc(NC(C)c3cc(N)cc(C(F)(F)F)c3)c2cc1OC1CCOC1 is below 60% in terms of viability, T/C.
result: -1

query: Is viability, T/C strictly under 60% for the entry COc1cc(Nc2ncc3c(n2)-c2ccc(Cl)cc2C(c2c(F)cccc2OC)=NC3)ccc1C(=O)O + CNCc1ccccc1-c1csc(C(C)Nc2nc(C)nc3cc(OC)c(OC)cc23)c1 ?
result: 1

query: Lab note: viability, T/C threshold 60%. Does this compound come in strictly under it? COC(=O)c1ccc2c(C(=Nc3ccc(N(C)C(=O)CN4CCN(C)CC4)cc3)c3ccccc3)c(O)[nH]c2c1 + CC1OCC2(CCN(c3cnc(Sc4ccnc(N)c4Cl)c(N)n3)CC2)C1N
result: -1

query: Problem: For the compound CC1OCC2(CCN(c3cnc(Sc4ccnc(N)c4Cl)c(N)n3)CC2)C1N (stereo unspecified) + COc1cc2nc(C)nc(NC(C)c3cc(N)cc(C(F)(F)F)c3)c2cc1OC1CCOC1 , is viability, T/C under 60%?
result: -1

query: Just wondering, is viability, T/C of COc1cc2nccc(Oc3ccc(NC(=O)C4(C(=O)Nc5ccc(F)cc5)CC4)cc3)c2cc1OC + CNCc1ccccc1-c1csc(C(C)Nc2nc(C)nc3cc(OC)c(OC)cc23)c1 below 60%?
result: 1
